Where do the numbers come from? From patent US5571942A.

Molecular target: 5-HT1A receptors (Rattus norvegicus)
Sequence (P19327 1-422): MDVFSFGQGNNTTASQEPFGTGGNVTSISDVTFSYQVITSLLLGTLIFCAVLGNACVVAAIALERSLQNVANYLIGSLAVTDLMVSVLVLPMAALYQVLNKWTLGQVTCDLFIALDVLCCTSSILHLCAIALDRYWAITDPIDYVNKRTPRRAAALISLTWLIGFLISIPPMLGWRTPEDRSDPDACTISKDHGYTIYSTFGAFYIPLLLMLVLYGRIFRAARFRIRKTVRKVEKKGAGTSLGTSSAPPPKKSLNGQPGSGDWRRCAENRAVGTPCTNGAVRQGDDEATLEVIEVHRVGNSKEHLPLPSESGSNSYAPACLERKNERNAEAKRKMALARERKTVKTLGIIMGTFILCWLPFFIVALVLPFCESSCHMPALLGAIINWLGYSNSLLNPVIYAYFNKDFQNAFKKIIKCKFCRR
Assay: in vitro binding: inhibition of 3H-8-OH-DPAT binding to synaptosomal membranes from rat cerebral cortex
Details: 3H-8-OH-DPAT 2 nM, 37° C., 10 min, pH 7.4
pIC50: −log10 of the molar value.
Note to self: values exactly at 8 are True. So pIC50 at or above 8 is True, below is False.

# Molecule, Class Label
measured = [
    ("CCCN(CCC)C1CCc2cccc(-c3ccn(C)n3)c2C1 (centres unmarked) [5 (3-yl)]", "True"),
    ("CCCN(CCC)C1CCc2cccc(-c3cc(O)[nH]n3)c2C1 (centres unmarked) [Example 6]", "False"),
    ("CCCN(CCC)C1CCc2cccc(-c3cc[nH]n3)c2C1 (centres unmarked) [Example 33]", "True"),
    ("CCCN(CCC)C1CCc2cccc(-c3ccon3)c2C1 (centres unmarked) [Example 25]", "True"),
    ("CCCN(CCC)C1CCc2cccc(-c3ccc4ccccc4n3)c2C1 (centres unmarked) [Example 12]", "False"),
    ("CCCN(CCC)C1CCc2cccc(-c3noc4ccccc34)c2C1 (centres unmarked) [Example 17]", "True"),
    ("CCCN(CCC)C1CCc2cccc(-c3cscn3)c2C1 (centres unmarked) [Example 11]", "True"),
    ("CCCN(CCC)C1CCc2cccc(-c3ccnc(N)n3)c2C1 (centres unmarked) [Example 32]", "False"),
    ("CCCN(CCC)C1CCc2cccc(-c3cc(C)on3)c2C1 (centres unmarked) [Example 28]", "True"),
    ("CCCN(CCC)C1CCc2cccc(-c3ccccn3)c2C1 (centres unmarked) [Example 15]", "False"),
    ("CCCN(CCC)C1CCc2cccc(-c3csc(N)n3)c2C1 (centres unmarked) [Example 10]", "False"),
    ("CCCN(CCC)C1CCc2cccc(-c3noc(-c4ccccc4)n3)c2C1 (centres unmarked) [Example 2]", "False"),
]
